PROCEDURE DETAILS: in vivo
CONDITIONS USED: both, Sprague-Dawley, rat, po, 18 g/kg, AUC0-t in heart
ASSAY ENDPOINT: AUC(0-t) (µM·h)
One number for each entry, in µM·h.

# get_value(readout='AUC(0-t)', item= O=C1c2cc(O)cc(O)c2C(=O)c2c(O)cc(CO)cc21 [Citreorosein] )
0.65

----------
For each of the compounds below, state its AUC(0-t).
PROCEDURE DETAILS: Tissue distribution of RPM constituents after oral RPM extract
CONDITIONS USED: female, Sprague-Dawley, rat, ovary, po, 18 g/kg, AUC0-t in ovary, rat tissue: ovary; 18 g/kg RPM extract p.o.; tissues collected at 5, 15, 60 min
Answers are plain numbers, in µM·h.

Here are 3 compounds together with their reported answers.
COc1cc(O[C@@H]2O[C@H](CO)[C@@H](O)[C@H](O)[C@H]2O)c2c(O)c(C(C)=O)c(C)cc2c1 [TG, torachrysone-8-O-glucoside] | 0.153
COc1cc(O)cc2c1C(=O)c1c(O)cc(CO)cc1C2=O | 0.0168
COc1cc(O[C@@H]2O[C@H](CO)[C@@H](O)[C@H](O)[C@H]2O)c2c(c1)C(=O)c1cc(C)cc(O)c1C2=O [PG, physcion-8-O-β-D-glucoside] | 0.614

Could you now look at the following compound, please?
Any idea what its AUC(0-t) is? The compound is OC[C@H]1O[C@@H](Oc2c(O)cc(O)cc2/C=C/c2ccc(O)cc2)[C@H](O)[C@@H](O)[C@@H]1O
7.59
